Compiled from multiple publications: pIC50 readings for Ubiquitin carboxyl-terminal hydrolase 8 (Homo sapiens, UniProt P40818).
Sequence (P40818 whole entry): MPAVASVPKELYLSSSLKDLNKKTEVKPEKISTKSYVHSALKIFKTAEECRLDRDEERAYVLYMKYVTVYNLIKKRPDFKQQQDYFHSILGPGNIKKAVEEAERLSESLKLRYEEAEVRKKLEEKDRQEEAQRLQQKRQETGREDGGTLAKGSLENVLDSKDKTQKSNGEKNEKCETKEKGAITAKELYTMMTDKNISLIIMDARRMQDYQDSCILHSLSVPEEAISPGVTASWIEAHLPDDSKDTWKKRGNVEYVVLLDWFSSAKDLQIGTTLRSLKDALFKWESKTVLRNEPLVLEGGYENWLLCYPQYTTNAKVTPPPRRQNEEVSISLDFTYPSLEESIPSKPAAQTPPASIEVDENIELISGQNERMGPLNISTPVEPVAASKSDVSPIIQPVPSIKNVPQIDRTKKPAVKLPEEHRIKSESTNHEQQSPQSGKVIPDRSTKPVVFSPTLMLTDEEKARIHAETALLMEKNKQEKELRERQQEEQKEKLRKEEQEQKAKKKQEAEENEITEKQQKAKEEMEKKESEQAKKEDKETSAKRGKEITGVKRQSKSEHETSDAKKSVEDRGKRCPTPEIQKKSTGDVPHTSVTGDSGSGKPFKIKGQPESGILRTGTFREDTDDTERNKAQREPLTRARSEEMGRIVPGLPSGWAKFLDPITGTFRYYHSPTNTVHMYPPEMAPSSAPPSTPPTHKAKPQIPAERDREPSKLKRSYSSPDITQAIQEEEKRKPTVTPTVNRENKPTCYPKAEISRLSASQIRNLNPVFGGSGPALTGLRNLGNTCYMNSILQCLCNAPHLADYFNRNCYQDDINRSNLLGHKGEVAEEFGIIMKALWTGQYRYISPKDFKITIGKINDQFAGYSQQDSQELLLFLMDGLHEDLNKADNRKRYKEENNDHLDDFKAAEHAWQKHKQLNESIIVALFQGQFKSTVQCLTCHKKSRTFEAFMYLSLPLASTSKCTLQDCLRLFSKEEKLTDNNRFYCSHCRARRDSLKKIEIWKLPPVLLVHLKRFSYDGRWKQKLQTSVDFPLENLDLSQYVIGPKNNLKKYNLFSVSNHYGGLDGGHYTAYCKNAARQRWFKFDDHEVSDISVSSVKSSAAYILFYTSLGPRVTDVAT
pIC50: −log10 of the molar value.
Measurement type: pIC50

CC(C)Cc1nnc2nc3c(nn12)-c1ccccc1C3=O ... 6.78
CCCCc1nnc2nc3c(nn12)-c1ccccc1C3=O ... 6.82
Cc1nnc2nc3c(nn12)C(=O)c1ccccc1-3 ... 6.15
O=C1c2ccccc2-c2nn3c(CO)nnc3nc21 ... 6.79
CCCc1nnc2nc3c(nn12)-c1cc(OC)c(OC)cc1C3=O ... 6.98
CON=C1c2ccccc2-c2nn3c(C)nnc3nc21 (mixture of isomers) ... 6.24
C=CCON=C1c2ccccc2-c2nc3nnc(CCCC)n3nc21 (mixture of isomers) ... 4.46
O=C1c2ccccc2-c2nn3c(Cc4ccccc4)nnc3nc21 ... 6.78
Nc1nnc2nc3c(nn12)C(=O)c1ccccc1-3 ... 6.08
C=CCON=C1c2ccccc2-c2nn3c(C)nnc3nc21 (mixture of isomers) ... 6.45
CCc1nnc2nc3c(nn12)C(=O)c1cc(OC)c(OC)cc1-3 ... 6.09
